experiment: logP determination by HPLC on reversed-phase column (C 18), pH 2.3; type: physicochemical; conditions: reversed-phase HPLC column (C 18), HPLC reversed-phase C 18, 43° C.
Measured chromatographic logP by item
Provide a numeric answer; units are not to be included.

Reference set, count: 4
CC(C)CC(C)c1ccccc1NC(=O)c1c(C(F)(F)F)nn(C)c1F (centres unmarked); 3.88
CCC(C)(C)CC(C)c1ccccc1NC(=O)c1c(C(F)(F)F)nn(C)c1F (centres unmarked); 4.45
CC(C)CC(C)c1cc(F)ccc1NC(=O)c1c(C(F)(F)F)nn(C)c1F (centres unmarked); 3.92
CC(CC(C)(C)C)c1ccccc1NC(=O)c1c(C(F)(F)F)nn(C)c1F (centres unmarked); 4.14

Q: Sample CCC(CC(C)C)c1ccccc1NC(=O)c1c(C(F)(F)F)nn(C)c1F (centres unmarked) — what was its chromatographic logP?
A: 4.27

FYI, the data here is from patent US7358214B2.
